Subject of test: Protein kinase C beta type (Homo sapiens, UniProt P05771)
Sequence (P05771 whole entry): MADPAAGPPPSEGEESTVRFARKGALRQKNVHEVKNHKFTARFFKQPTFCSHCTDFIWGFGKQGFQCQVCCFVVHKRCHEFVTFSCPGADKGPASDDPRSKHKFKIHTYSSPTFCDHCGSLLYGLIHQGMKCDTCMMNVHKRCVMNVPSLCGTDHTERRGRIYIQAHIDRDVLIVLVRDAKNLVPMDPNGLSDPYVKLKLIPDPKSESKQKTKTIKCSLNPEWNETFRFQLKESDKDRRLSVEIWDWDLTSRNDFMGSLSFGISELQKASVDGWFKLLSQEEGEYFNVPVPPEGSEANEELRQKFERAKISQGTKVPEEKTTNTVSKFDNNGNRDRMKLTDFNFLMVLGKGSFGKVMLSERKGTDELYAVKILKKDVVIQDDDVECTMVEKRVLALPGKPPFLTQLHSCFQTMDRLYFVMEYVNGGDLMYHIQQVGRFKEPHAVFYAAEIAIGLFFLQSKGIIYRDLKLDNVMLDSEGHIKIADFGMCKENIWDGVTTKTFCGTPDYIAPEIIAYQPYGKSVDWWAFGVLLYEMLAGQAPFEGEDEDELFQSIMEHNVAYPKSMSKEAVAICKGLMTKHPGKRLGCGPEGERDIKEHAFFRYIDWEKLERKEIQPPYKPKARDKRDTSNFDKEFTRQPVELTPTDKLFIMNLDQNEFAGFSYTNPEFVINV
Measure name: IC50

The measured IC50 associated with "CNC(=O)c1nn(C)c2c1C(C)(C)Cc1cnc(Nc3ccc(N4CCN(C)CC4)cc3)nc1-2" reads > 10 µM

====

Subject of test: Cyclin-dependent kinase 2 (Homo sapiens, UniProt P24941)
Method description: Inhibition of CDK2/Cyclin A
Exercise: state measured log10 of IC50 for each of the molecules provided.
Would you kindly interpret these values as log10 of IC50 expressed in nM?

Record excerpt, results attached:
CNC(=O)c1nn(C)c2c1C(C)(C)Cc1cnc(Nc3ccc(N(C)C)cc3)nc1-2 :: 1.77
CNC(=O)c1nn(C)c2c1C(C)(C)Cc1cnc(Nc3cccc(N4CCOCC4)c3)nc1-2 :: 2.39

Please look at the items below and tell me log10 of IC50 for each one, in order.
1. CNC(=O)c1nn(C)c2c1C(C)(C)Cc1cnc(Nc3ccc(CN4CCN(C)CC4)cc3)nc1-2
2. Cn1nc(C(=O)NCCO)c2c1-c1nc(Nc3ccccc3)ncc1CC2
3. CNC(=O)c1nn(C)c2c1C(C)(C)Cc1cnc(Nc3cccc(CN4CCN(C)CC4)c3)nc1-2
4. CNC(=O)c1nn(C)c2c1C(C)(C)Cc1cnc(Nc3ccc(CN4CCOCC4)cc3)nc1-2
5. Cn1nc(C(N)=O)c2c1-c1nc(Nc3ccc(N4CCOCC4)cc3)ncc1CC2
6. CN1CCN(c2ccc(Nc3ncc4c(n3)-c3c(c(C(N)=O)nn3C)C(C)(C)C4)cc2)CC1
7. CNC(=O)c1nn(C)c2c1C(C)(C)Cc1cnc(Nc3cccc(CN(C)C)c3)nc1-2

Reply |
1: 1.74; 2: 1.87; 3: 1.77; 4: 1.56; 5: 1.15; 6: 1.23; 7: 1.92
